System: MCF7
Assay: Induction of apoptosis in human MCF7 cells assessed as necrotic cells at IC50 after 24 hrs by annexin V/FITC-propidium iodide staining-based flow cytometric method (reference value: 0.53%)
Format: functional
Activity under 3% gets true, anything at or over 3% gets false.

smiles_str: COc1cc(C2=N/C(=C\c3cc(Br)cc(Br)c3OC(C)=O)C(=O)NN2c2ncc(-c3ccccc3)s2)cc(OC)c1OC
system_tested: MCF7
class_assignment: false

smiles_str: COc1cc(C2=N/C(=C\c3cc(Br)cc(Br)c3OC(C)=O)C(=O)NN2c2ccccc2)cc(OC)c1OC
system_tested: MCF7
class_assignment: false

smiles_str: COc1cc(C(=O)N/C(=C/c2cc(Br)cc(Br)c2OC(C)=O)C(=O)NNC(N)=S)cc(OC)c1OC
system_tested: MCF7
class_assignment: true

smiles_str: COc1cc(C2=N/C(=C\c3cc(Br)cc(Br)c3OC(C)=O)C(=O)n3c(C)nc(=S)n32)cc(OC)c1OC
system_tested: MCF7
class_assignment: true

smiles_str: COc1cc([C@@H]2c3cc4c(cc3[C@H](O)[C@H]3COC(=O)[C@H]23)OCO4)cc(OC)c1OC
system_tested: MCF7
class_assignment: true

smiles_str: COc1cc(C2=N/C(=C\c3cc(Br)cc(Br)c3OC(C)=O)C(=O)NN2C(N)=S)cc(OC)c1OC
system_tested: MCF7
class_assignment: false

====

Here, each record is paired with measured fold change (FC) data.
System: MCF7
Test: Upregulation of p53 level in human MCF7 cells at IC50 incubated for 24 hrs by ELISA relative to control
Assay type: functional

smiles_str: COc1cc(C2=N/C(=C\c3cc(Br)cc(Br)c3OC(C)=O)C(=O)NN2C(N)=S)cc(OC)c1OC
fold change (FC): 8.1

smiles_str: COc1cc(C2=N/C(=C\c3cc(Br)cc(Br)c3OC(C)=O)C(=O)NN2c2ncc(-c3ccccc3)s2)cc(OC)c1OC
fold change (FC): 9.2

smiles_str: COc1cc(C2=N/C(=C\c3cc(Br)cc(Br)c3OC(C)=O)C(=O)NN2c2ccccc2)cc(OC)c1OC
fold change (FC): 1.9

smiles_str: COc1cc(C2=N/C(=C\c3cc(Br)cc(Br)c3OC(C)=O)C(=O)n3c(C)nc(=S)n32)cc(OC)c1OC
fold change (FC): 5.1

smiles_str: COc1cc(C(=O)N/C(=C/c2cc(Br)cc(Br)c2OC(C)=O)C(=O)NNC(N)=S)cc(OC)c1OC
fold change (FC): 4.2

====

Here, each record is paired with measured Activity data.
Tested on: MCF7
Experiment: Induction of apoptosis in human MCF7 cells assessed as early apoptotic cells at IC50 after 24 hrs by annexin V/FITC-propidium iodide staining-based flow cytometric method (reference value: 0.72%)
Type: functional

smiles_str: COc1cc(C2=N/C(=C\c3cc(Br)cc(Br)c3OC(C)=O)C(=O)n3c(C)nc(=S)n32)cc(OC)c1OC
Activity: 3.38%
//
smiles_str: COc1cc([C@@H]2c3cc4c(cc3[C@H](O)[C@H]3COC(=O)[C@H]23)OCO4)cc(OC)c1OC
Activity: 4.19%
//
smiles_str: COc1cc(C2=N/C(=C\c3cc(Br)cc(Br)c3OC(C)=O)C(=O)NN2c2ccccc2)cc(OC)c1OC
Activity: 5.47%
//
smiles_str: COc1cc(C2=N/C(=C\c3cc(Br)cc(Br)c3OC(C)=O)C(=O)NN2c2ncc(-c3ccccc3)s2)cc(OC)c1OC
Activity: 3.64%
//
smiles_str: COc1cc(C(=O)N/C(=C/c2cc(Br)cc(Br)c2OC(C)=O)C(=O)NNC(N)=S)cc(OC)c1OC
Activity: 4.66%
//
smiles_str: COc1cc(C2=N/C(=C\c3cc(Br)cc(Br)c3OC(C)=O)C(=O)NN2C(N)=S)cc(OC)c1OC
Activity: 4.78%

====

pIC50: −log10 of the molar value.
Dear all, this message contains pIC50 results, target or system DNA topoisomerase 2-beta (Homo sapiens).
measured_metric: pIC50

smiles_str: COc1cc(C2=N/C(=C\c3cc(Br)cc(Br)c3OC(C)=O)C(=O)NN2c2ncc(-c3ccccc3)s2)cc(OC)c1OC
system_tested: DNA topoisomerase 2-beta (Homo sapiens)
Sequence (Q02880 whole entry): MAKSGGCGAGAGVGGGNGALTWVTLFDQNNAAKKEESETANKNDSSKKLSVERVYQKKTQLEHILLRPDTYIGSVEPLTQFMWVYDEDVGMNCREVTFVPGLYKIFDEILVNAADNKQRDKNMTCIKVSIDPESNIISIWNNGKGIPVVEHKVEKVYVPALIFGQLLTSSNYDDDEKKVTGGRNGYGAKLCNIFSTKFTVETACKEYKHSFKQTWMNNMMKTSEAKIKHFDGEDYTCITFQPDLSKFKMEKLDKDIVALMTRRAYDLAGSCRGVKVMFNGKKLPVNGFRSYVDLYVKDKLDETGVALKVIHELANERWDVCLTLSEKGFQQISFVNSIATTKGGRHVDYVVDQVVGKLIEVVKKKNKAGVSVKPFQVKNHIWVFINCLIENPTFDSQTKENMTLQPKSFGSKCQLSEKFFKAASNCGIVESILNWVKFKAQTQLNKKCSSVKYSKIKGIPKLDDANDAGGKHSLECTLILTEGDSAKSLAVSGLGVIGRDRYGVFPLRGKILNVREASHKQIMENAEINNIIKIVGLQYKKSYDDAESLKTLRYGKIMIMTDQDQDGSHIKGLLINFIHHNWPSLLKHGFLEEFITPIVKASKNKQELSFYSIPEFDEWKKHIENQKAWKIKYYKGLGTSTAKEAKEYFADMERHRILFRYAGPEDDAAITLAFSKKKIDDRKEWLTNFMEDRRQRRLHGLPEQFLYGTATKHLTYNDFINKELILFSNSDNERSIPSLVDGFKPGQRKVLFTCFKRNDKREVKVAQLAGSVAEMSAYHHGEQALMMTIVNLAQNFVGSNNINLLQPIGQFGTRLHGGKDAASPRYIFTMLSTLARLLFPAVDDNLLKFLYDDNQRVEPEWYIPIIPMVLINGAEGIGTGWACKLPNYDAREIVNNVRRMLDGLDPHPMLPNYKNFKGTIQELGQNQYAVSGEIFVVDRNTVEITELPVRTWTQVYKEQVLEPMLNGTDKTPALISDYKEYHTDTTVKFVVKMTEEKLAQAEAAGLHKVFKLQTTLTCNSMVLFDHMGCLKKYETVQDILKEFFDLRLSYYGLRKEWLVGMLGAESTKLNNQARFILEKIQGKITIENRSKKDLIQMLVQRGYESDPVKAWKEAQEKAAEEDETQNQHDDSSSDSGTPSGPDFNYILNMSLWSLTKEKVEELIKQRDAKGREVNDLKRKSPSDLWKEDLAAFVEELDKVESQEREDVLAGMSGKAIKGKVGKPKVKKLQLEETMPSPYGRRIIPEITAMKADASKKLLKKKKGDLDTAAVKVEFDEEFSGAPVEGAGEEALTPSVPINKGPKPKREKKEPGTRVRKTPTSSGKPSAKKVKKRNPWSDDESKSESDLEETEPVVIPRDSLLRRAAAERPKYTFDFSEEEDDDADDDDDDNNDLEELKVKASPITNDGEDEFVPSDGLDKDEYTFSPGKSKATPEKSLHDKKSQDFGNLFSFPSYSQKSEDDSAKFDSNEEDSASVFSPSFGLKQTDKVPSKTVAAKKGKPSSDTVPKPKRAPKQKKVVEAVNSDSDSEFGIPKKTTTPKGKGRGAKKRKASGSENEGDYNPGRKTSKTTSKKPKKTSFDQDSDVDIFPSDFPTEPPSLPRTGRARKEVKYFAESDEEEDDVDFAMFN
numeric_readout: 8.16
--
smiles_str: COc1cc(C2=N/C(=C\c3cc(Br)cc(Br)c3OC(C)=O)C(=O)NN2c2ccccc2)cc(OC)c1OC
system_tested: DNA topoisomerase 2-beta (Homo sapiens)
numeric_readout: 7.90
--
smiles_str: COc1cc(C2=N/C(=C\c3cc(Br)cc(Br)c3OC(C)=O)C(=O)NN2C(N)=S)cc(OC)c1OC
system_tested: DNA topoisomerase 2-beta (Homo sapiens)
numeric_readout: 7.50
--
smiles_str: COc1cc(C(=O)N/C(=C/c2cc(Br)cc(Br)c2OC(C)=O)C(=O)NNC(N)=S)cc(OC)c1OC
system_tested: DNA topoisomerase 2-beta (Homo sapiens)
numeric_readout: 7.09

====

System: MCF7
Test: Upregulation of caspase3/7 level in human MCF7 cells at IC50 incubated for 24 hrs by green flow cytometric analysis relative to control
Type: functional

smiles_str: COc1cc(C2=N/C(=C\c3cc(Br)cc(Br)c3OC(C)=O)C(=O)NN2c2ncc(-c3ccccc3)s2)cc(OC)c1OC
system_tested: MCF7
fold change (FC): 15.6

smiles_str: COc1cc(C(=O)N/C(=C/c2cc(Br)cc(Br)c2OC(C)=O)C(=O)NNC(N)=S)cc(OC)c1OC
system_tested: MCF7
fold change (FC): 24.1

smiles_str: COc1cc(C2=N/C(=C\c3cc(Br)cc(Br)c3OC(C)=O)C(=O)NN2c2ccccc2)cc(OC)c1OC
system_tested: MCF7
fold change (FC): 18

smiles_str: COc1cc(C2=N/C(=C\c3cc(Br)cc(Br)c3OC(C)=O)C(=O)n3c(C)nc(=S)n32)cc(OC)c1OC
system_tested: MCF7
fold change (FC): 31.3

smiles_str: COc1cc(C2=N/C(=C\c3cc(Br)cc(Br)c3OC(C)=O)C(=O)NN2C(N)=S)cc(OC)c1OC
system_tested: MCF7
fold change (FC): 21.6

Data origin, for the record: ChEMBL document CHEMBL4152338
